- experimental_target: Pin1 (Homo sapiens, UniProt Q13526)
- Construct: purchased Anaspec
- Sequence (Q13526 whole entry): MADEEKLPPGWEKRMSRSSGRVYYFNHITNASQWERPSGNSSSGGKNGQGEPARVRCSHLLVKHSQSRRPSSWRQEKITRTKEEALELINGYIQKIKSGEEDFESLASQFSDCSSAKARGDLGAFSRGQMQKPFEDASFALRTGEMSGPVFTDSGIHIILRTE
- test_protocol: Evaluation of Pin1 enzyme inhibitory activity (Sensolyte Green Pin1 assay kit)
- Type: biochemical
- particulars: concentration at which the Pin1 enzyme activity is inhibited; 2 hours at room temperature, fluorescence 490 nm/520 nm; read-out: Pin 1 inhibition
pIC50: −log10 of the molar value.
pIC50: recorded values

Prompt: Reported pIC50 for O=S(=O)(NCCCc1c[nH]c2ccc(Cl)cc12)c1ccc(Oc2cccc(N3CCCCC3)c2)cc1 [Example 120] : what is it?
Response: 5.00 to 6.00

Prompt: Would you kindly share the measured pIC50 for CCCCOc1ccc(S(=O)(=O)NCCc2cc3ccccc3[nH]2)cc1 [Example 25] ?
Response: < 4.00

Prompt: Any idea what pIC50 was measured for CN1CCN(c2cccc(Nc3ccc(S(=O)(=O)NCCCc4c[nH]c5ccc(Cl)cc45)cc3)n2)CC1 [Example 131] ?
Response: 5.00 to 6.00

***
Prompt: Param item = CN1CCN(CCCOc2ccc(S(=O)(=O)NCCCc3c[nH]c4cc(Cl)c(Cl)cc34)cc2)CC1 [Example 184] ; retrieve measured pIC50.
Response: > 6.00

Prompt: Need pIC50 of CCCCOc1ccc(S(=O)(=O)NCCc2nc3ccccc3[nH]2)cc1 [Example 23] , thanks.
Response: < 4.00
